assay: Elimination half life in human; type: ADME; conditions: read-out: beta t1/2
result type: half-life

Req: Name the recorded half-life for COc1cc2c(cc1OC)C(=O)C(CC1CCN(Cc3ccccc3)CC1)C2 (stereo unspecified) .
Resp: 70 to 80 h

* * *

molecular target: Acetylcholinesterase (Electrophorus electricus, UniProt O42275); assay: Inhibition of electric eel AChE using acetylthiocholine iodide as substrate by Ellman's method
Sequence (O42275 whole entry): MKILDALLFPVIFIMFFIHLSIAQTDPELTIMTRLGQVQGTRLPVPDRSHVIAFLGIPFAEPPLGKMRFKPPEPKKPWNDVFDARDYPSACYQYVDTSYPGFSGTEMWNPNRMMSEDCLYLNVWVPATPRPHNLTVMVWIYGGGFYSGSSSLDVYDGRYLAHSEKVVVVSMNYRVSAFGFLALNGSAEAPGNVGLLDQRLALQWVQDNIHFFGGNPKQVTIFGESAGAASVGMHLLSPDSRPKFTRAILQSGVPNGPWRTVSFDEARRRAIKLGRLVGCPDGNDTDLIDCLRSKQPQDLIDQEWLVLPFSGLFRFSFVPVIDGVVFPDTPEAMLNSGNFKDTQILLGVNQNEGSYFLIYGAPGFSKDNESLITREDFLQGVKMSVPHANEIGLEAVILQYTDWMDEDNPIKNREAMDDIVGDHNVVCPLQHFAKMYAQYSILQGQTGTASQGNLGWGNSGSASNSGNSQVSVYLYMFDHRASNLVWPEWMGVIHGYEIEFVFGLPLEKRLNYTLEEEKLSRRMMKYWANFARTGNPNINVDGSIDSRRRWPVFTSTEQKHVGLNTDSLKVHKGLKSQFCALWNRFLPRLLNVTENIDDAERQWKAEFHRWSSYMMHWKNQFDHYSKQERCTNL
Measured pIC50 by item
Lab note — pIC50 values are minus log10 of concentrations in M.

Examples with their reported pIC50 follow.
# molecule, measurement target, result type, recorded result
data = [
    ("COc1cc2c(cc1OC)C(=O)C(CC1CCN(Cc3ccccc3)C1)C2 (centres undefined)", "Acetylcholinesterase (Electrophorus electricus, UniProt O42275)", "pIC50", 5.76),
    ("COc1cc2c(cc1OC)C(=O)C(C[C@@H]1CCCN1Cc1ccccc1)C2 (some centres undefined)", "Acetylcholinesterase (Electrophorus electricus, UniProt O42275)", "pIC50", 5.50),
    ("COc1cc2c(cc1OC)C(=O)C(CC1CN(Cc3ccccc3)C1)C2 (centres undefined)", "Acetylcholinesterase (Electrophorus electricus, UniProt O42275)", "pIC50", 5.95),
    ("COc1cc2c(cc1OC)C(=O)/C(=C/C1CCCCN1Cc1ccccc1)C2 (centres undefined)", "Acetylcholinesterase (Electrophorus electricus, UniProt O42275)", "pIC50", 6.12),
    ("COc1cc2c(cc1OC)C(=O)/C(=C/C1CCN(Cc3ccccc3)C1)C2 (centres undefined)", "Acetylcholinesterase (Electrophorus electricus, UniProt O42275)", "pIC50", 6.28),
    ("COc1cc2c(cc1OC)C(=O)C(C(=O)C1CCN(Cc3ccccc3)CC1)C2 (centres undefined)", "Acetylcholinesterase (Electrophorus electricus, UniProt O42275)", "pIC50", 6.18),
    ("COc1cc2c(cc1OC)C(=O)C(C(=O)OC1CCN(Cc3ccccc3)CC1)C2 (centres undefined)", "Acetylcholinesterase (Electrophorus electricus, UniProt O42275)", "pIC50", 5.52),
    ("COc1cc2c(cc1OC)C(=O)C(CC1CCCN(Cc3ccccc3)C1)C2 (centres undefined)", "Acetylcholinesterase (Electrophorus electricus, UniProt O42275)", "pIC50", 6.29),
    ("COc1cc2c(cc1OC)C(=O)/C(=C/C1CN(Cc3ccccc3)C1)C2", "Acetylcholinesterase (Electrophorus electricus, UniProt O42275)", "pIC50", 6.15),
    ("COc1cc2c(cc1OC)C(=O)C(CC1CCCCN1Cc1ccccc1)C2 (centres undefined)", "Acetylcholinesterase (Electrophorus electricus, UniProt O42275)", "pIC50", 6.34),
]

Req: Name the recorded pIC50 for `COc1cc2c(cc1OC)C(=O)/C(=C/C1CCN(Cc3ccccc3)CC1)C2` .
Resp: 6.38

Req: Name the recorded pIC50 for COc1cc2c(cc1OC)C(=O)/C(=C/C1CCCN(Cc3ccccc3)C1)C2 (centres undefined) .
Resp: 5.93

* * *

test: clinical; conditions: human, in vivo, po
result type: bioavailability (%)
Form entry: value (%) — number only.

Req: Name the recorded bioavailability for COc1cc2c(cc1OC)C(=O)C(CC1CCN(Cc3ccccc3)CC1)C2 (stereo unspecified) .
Resp: 100
